These data points were gathered from the supplement of paper PMC7877785.

- PROTOCOL: self-splicing fitness, log relative to wild type (ln ratio); higher = more splicing; Tetrahymena group I intron in knt gene, E. coli kanamycin selection, DiMSum; sequences stand for … in CUCUCU…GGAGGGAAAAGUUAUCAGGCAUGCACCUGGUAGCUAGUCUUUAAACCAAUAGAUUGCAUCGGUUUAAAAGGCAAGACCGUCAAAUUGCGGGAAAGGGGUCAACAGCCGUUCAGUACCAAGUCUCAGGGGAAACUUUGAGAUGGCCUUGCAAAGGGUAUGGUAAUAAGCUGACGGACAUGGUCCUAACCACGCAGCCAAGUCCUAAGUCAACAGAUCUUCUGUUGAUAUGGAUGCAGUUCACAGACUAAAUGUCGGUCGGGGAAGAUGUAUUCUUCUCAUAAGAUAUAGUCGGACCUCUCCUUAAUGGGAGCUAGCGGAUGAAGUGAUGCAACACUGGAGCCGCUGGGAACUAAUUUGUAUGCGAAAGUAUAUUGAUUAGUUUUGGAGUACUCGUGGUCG;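 also: selection with 25 µg/mL kanamycin versus none on LB agar overnight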
- CONDITION_SUMMARY: 30 °C
Response key: true means self-splicing fitness (ln) >= -2; false means self-splicing fitness (ln) < -2.

input: API: above_or_equal(metric=self-splicing fitness (ln), cutoff=-2) for item CGCCAGCAAUAUUACGACUU
output: false

input: API: above_or_equal(metric=self-splicing fitness (ln), cutoff=-2) for item ACAUAGCAAUAUUACGACCC
output: true

input: API: above_or_equal(metric=self-splicing fitness (ln), cutoff=-2) for item UUAUAGCAAUAUUACGCUGU
output: false

input: API: above_or_equal(metric=self-splicing fitness (ln), cutoff=-2) for item GGCCAGCAAUAUUACGUGAA
output: true

input: API: above_or_equal(metric=self-splicing fitness (ln), cutoff=-2) for item ACCGAGCAAUAUUACGUUCU
output: false
